# assay.method.text: Metabolic stability in mouse liver microsomes assessed as half-life
# Type: ADME, Microsome
recorded.endpoint: half-life (min)

P = CCNC(=O)c1ccc(NC2CCCCC2)c(NCc2ccccc2)c1
Q = CCOC(=O)c1ccc(NC2CCCCC2)c(N)c1
R = CCNC(=O)c1ccc(NC2CCCCC2)c(NC(=O)/C=C/c2cc(OC)c(OC)cc2OC)c1
Put the items in sequence by half-life, from largest down. Form entry: labels listed in requested order. R, P, Q
(R: 31.4 min, P: 19.6 min, Q: 2.7 min)

###

# assay.method.text: Kinetic solubility of compound
# Type: physicochemical
# assay.conditions: read-out: Kinetic_solubility
recorded.endpoint: solubility kinetic (µM)

1 = CCNC(=O)c1ccc(NC2CCCCC2)c(NCc2ccccc2)c1
2 = CCNC(=O)c1ccc(NC2CCCCC2)c(NC(=O)/C=C/c2cc(OC)c(OC)cc2OC)c1
Between 1 and 2 , which one shows the larger solubility kinetic value? Pick one and reply with its label. 1
(1: 50 µM, 2: 33.3 µM)
